Provide the reported selectivity ratio of each item.
Test: Selectivity index, ratio of CC50 for human HSF cells to MIC for Bacillus subtilis 168
Assay type: toxicity
Conditions: HSF cells
Give bare numbers.

response.value for CCCCCCCCCCCCCC(=O)NCCC[N+](C)(C)Cc1ccccc1.[Cl-] [MIRAMISTIN] (field: selectivity ratio) = 1.2

Now consider a different compound.
response.value for [H]/N=C(\N/C(=N/[H])NCCCCCCNC(=N)NC(=N)Nc1ccc(Cl)cc1)Nc1ccc(Cl)cc1 [CHLORHEXIDINE] (field: selectivity ratio) = 2.74

* * *

System: Staphylococcus aureus
Experiment: Antibacterial activity against methicillin- resistant Staphylococcus aureus 983 clinical isolate assessed as reduction in bacterial growth incubated for 24 hrs by CLSI broth microdilution method
Assay type: functional
experimental endpoint: MIC (µg/mL)
Numbers only, in µg/mL.

response.value for `CCCCCCCCCCCCCC(=O)NCCC[N+](C)(C)Cc1ccccc1.[Cl-]` (field: MIC) = 4

State the recorded MIC for every item in the following list.
1. CCCCCCCC[N+](C)(C)CCCNC(=O)COc1c2cc(C(C)(C)C)cc1Sc1cc(C(C)(C)C)cc(c1OCC(=O)NCCC[N+](C)(C)CCCCCCCC)Sc1cc(C(C)(C)C)cc(c1OCC(=O)NCCC[N+](C)(C)CCCCCCCC)Sc1cc(C(C)(C)C)cc(c1OCC(=O)NCCC[N+](C)(C)CCCCCCCC)S2.[Cl-].[Cl-].[Cl-].[Cl-]
2. CC(C)(C)c1cc2c(OCC(=O)NCCC[N+](C)(C)Cc3ccccc3)c(c1)Sc1cc(C(C)(C)C)cc(c1OCC(=O)NCCC[N+](C)(C)Cc1ccccc1)Sc1cc(C(C)(C)C)cc(c1OCC(=O)NCCC[N+](C)(C)Cc1ccccc1)Sc1cc(C(C)(C)C)cc(c1OCC(=O)NCCC[N+](C)(C)Cc1ccccc1)S2.[Cl-].[Cl-].[Cl-].[Cl-]

1. 16
2. 64

response.value for `CCCCCCCCCC[N+](C)(C)CCCNC(=O)COc1c2cc(C(C)(C)C)cc1Sc1cc(C(C)(C)C)cc(c1OCC(=O)NCCC[N+](C)(C)CCCCCCCCCC)Sc1cc(C(C)(C)C)cc(c1OCC(=O)NCCC[N+](C)(C)CCCCCCCCCC)Sc1cc(C(C)(C)C)cc(c1OCC(=O)NCCC[N+](C)(C)CCCCCCCCCC)S2.[Cl-].[Cl-].[Cl-].[Cl-]` (field: MIC) = 32

* * *

System: Staphylococcus aureus
Assay: Antibacterial activity against methicillin- resistant Staphylococcus aureus 2020 clinical isolate assessed as reduction in bacterial growth incubated for 24 hrs by CLSI broth microdilution method
Type: functional
experimental endpoint: MIC (µg/mL)
Numbers only, in µg/mL.

Guide cases for MIC, answers given:
response.value for `CCCCCCCC[N+](C)(C)CCCNC(=O)COc1c2cc(C(C)(C)C)cc1Sc1cc(C(C)(C)C)cc(c1OCC(=O)NCCC[N+](C)(C)CCCCCCCC)Sc1cc(C(C)(C)C)cc(c1OCC(=O)NCCC[N+](C)(C)CCCCCCCC)Sc1cc(C(C)(C)C)cc(c1OCC(=O)NCCC[N+](C)(C)CCCCCCCC)S2.[Cl-].[Cl-].[Cl-].[Cl-]` (field: MIC) = 16

response.value for `CCCCCCCCCC[N+](C)(C)CCCNC(=O)COc1c2cc(C(C)(C)C)cc1Sc1cc(C(C)(C)C)cc(c1OCC(=O)NCCC[N+](C)(C)CCCCCCCCCC)Sc1cc(C(C)(C)C)cc(c1OCC(=O)NCCC[N+](C)(C)CCCCCCCCCC)Sc1cc(C(C)(C)C)cc(c1OCC(=O)NCCC[N+](C)(C)CCCCCCCCCC)S2.[Cl-].[Cl-].[Cl-].[Cl-]` (field: MIC) = 32

response.value for `CCCCCCCCCCCCCC(=O)NCCC[N+](C)(C)Cc1ccccc1.[Cl-]` (field: MIC) = 8

Now consider a different compound.
response.value for `CC(C)(C)c1cc2c(OCC(=O)NCCC[N+](C)(C)Cc3ccccc3)c(c1)Sc1cc(C(C)(C)C)cc(c1OCC(=O)NCCC[N+](C)(C)Cc1ccccc1)Sc1cc(C(C)(C)C)cc(c1OCC(=O)NCCC[N+](C)(C)Cc1ccccc1)Sc1cc(C(C)(C)C)cc(c1OCC(=O)NCCC[N+](C)(C)Cc1ccccc1)S2.[Cl-].[Cl-].[Cl-].[Cl-]` (field: MIC) = 64

Where these numbers come from: ChEMBL document CHEMBL4673355
